- TARGET_ENTITY: T1, TNFR1 (Homo sapiens, UniProt P19438)
- T1 chain: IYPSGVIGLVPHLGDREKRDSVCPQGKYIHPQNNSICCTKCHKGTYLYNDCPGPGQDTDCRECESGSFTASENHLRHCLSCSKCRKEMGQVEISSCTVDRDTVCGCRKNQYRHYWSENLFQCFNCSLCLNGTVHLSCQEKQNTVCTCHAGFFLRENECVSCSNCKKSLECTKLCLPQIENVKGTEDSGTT
- ASSAY: yeast display SC50
ASSAY_METRIC: apparent Kd (screen) (pM)

BINDER	UNIT_NAME	REPORTED_MEASUREMENT
A94R (designed binder) MTLQELLREEALRRAEAEAFRYALELLAEKFPEQKEYLLDLAEEIESQIRSLSGVDVEDVRKFLDKEWAWVKELLAEHPAELAEVEAARAARLRELRAEVEAKVAA	pM	869

a. I45W (designed binder) MTLQELLREEALRRAEAEAFRYALELLAEKFPEQKEYLLDLAEEWESQIRSLSGVDVEDVRKFLDKEWAWVKELLAEHPAELAEVEAARAARLAELRAEVEAKVAA
b. I45A (designed binder) MTLQELLREEALRRAEAEAFRYALELLAEKFPEQKEYLLDLAEEAESQIRSLSGVDVEDVRKFLDKEWAWVKELLAEHPAELAEVEAARAARLAELRAEVEAKVAA
c. L24N (designed binder) MTLQELLREEALRRAEAEAFRYANELLAEKFPEQKEYLLDLAEEIESQIRSLSGVDVEDVRKFLDKEWAWVKELLAEHPAELAEVEAARAARLAELRAEVEAKVAA
q: List items by apparent Kd (screen) in falling order. Please list the labels in the order you were asked to rank them.
a: b, a, c
